- tgt: NHE-1 (Homo sapiens, UniProt P19634)
- Construct: endogenous in cells
- Sequence (P19634 whole entry): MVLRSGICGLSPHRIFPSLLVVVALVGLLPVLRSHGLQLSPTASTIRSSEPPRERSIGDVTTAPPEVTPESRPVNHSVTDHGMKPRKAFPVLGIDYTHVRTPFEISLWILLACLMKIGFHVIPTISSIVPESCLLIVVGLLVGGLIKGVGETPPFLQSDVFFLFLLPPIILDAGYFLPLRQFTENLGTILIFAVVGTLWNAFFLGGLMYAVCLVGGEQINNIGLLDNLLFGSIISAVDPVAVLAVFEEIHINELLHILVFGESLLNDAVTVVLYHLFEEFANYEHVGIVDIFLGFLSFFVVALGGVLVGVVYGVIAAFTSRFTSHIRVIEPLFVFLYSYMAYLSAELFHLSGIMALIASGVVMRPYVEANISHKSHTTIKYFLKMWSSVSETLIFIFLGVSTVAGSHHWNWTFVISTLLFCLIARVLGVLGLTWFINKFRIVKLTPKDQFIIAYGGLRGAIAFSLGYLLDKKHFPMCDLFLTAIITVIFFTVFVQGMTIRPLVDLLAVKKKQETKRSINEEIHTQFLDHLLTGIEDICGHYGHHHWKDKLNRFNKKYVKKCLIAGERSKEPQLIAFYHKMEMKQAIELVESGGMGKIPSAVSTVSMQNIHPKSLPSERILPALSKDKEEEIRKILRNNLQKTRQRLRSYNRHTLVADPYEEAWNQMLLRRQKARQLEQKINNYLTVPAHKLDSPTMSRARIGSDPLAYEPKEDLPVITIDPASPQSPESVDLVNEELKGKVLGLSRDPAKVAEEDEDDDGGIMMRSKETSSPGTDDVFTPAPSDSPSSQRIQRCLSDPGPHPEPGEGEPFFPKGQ
- experiment_notes: Evaluation of NHE-1 Inhibition (pHi) in HT-29 cells
- run_conditions: BCECF dye, 50% inhibition of the intracellular pH recovery, read-out: NHE1 HT29 pHi IC50
pIC50: −log10 of the molar value.
# if value of pIC50 reaches 7, tag 1; if it stays below, tag -1

Please tell me: is the compound Cc1cc(C2CCN(C(=O)CN3CCCC3=O)CC2)c(C(F)(F)F)cc1C(=O)NC(=N)N at or over 7 in terms of pIC50? 1

Please tell me: is the compound N=C(N)NC(=O)c1ccc(C2CCN(C(=O)c3ccc[nH]3)CC2)cc1 at or over 7 in terms of pIC50? -1

Please tell me: is the compound C[S+]([O-])c1ccc(C(=O)N2CCC(c3ccc(C(=O)NC(=N)N)cc3C(F)(F)F)CC2)cc1 (stereo not drawn) at or over 7 in terms of pIC50? 1

Please tell me: is the compound N=C(N)NC(=O)c1ccc(C2CCN(C(=O)C(N)CC3CC3)CC2)c(C(F)(F)F)c1 (stereo not drawn) at or over 7 in terms of pIC50? 1

Please tell me: is the compound C[S+]([O-])c1ccccc1C(=O)N1CCC(c2ccc(C(=O)NC(=N)N)cc2C(F)(F)F)CC1 (stereo not drawn) at or over 7 in terms of pIC50? 1

Please tell me: is the compound CS(=O)(=O)c1ccc(C(=O)N2CCC(c3ccc(C(=O)NC(=N)N)cc3C(F)(F)F)CC2)c(Cl)c1 at or over 7 in terms of pIC50? 1

Please tell me: is the compound Cn1cnc(C[C@H](N)C(=O)N2CCC(c3ccc(C(=O)NC(=N)N)cc3C(F)(F)F)CC2)c1 at or over 7 in terms of pIC50? 1

Please tell me: is the compound N=C(N)NC(=O)c1ccc(C2CCN(C(=O)c3ccc(N4CCCC4)cc3)CC2)c(C(F)(F)F)c1 at or over 7 in terms of pIC50? -1

Please tell me: is the compound CN(C)S(=O)(=O)c1ccc(C(=O)N2CCC(c3ccc(C(=O)NC(=N)N)cc3C(F)(F)F)CC2)cc1 at or over 7 in terms of pIC50? 1

Please tell me: is the compound Cc1cc(C2CCN(C(=O)c3ncco3)CC2)c(C(F)(F)F)cc1C(=O)NC(=N)N at or over 7 in terms of pIC50? 1

Please tell me: is the compound N=C(N)NC(=O)c1ccc(C2CCN(C(=O)C(N)Cc3ccccc3)CC2)c(C(F)(F)F)c1 (stereo not drawn) at or over 7 in terms of pIC50? 1

Please tell me: is the compound N=C(N)NC(=O)c1ccc(C2CCN(C(=O)c3ccccn3)CC2)c(C(F)(F)F)c1 at or over 7 in terms of pIC50? 1

Please tell me: is the compound COc1cc(C2CCN(C(=O)[C@@](C)(O)c3ccccc3)CC2)c(C(F)(F)F)cc1C(=O)NC(=N)N at or over 7 in terms of pIC50? -1

Please tell me: is the compound CS(=O)(=O)c1ccc(Oc2ccc(C(=O)N3CCC(c4ccc(C(=O)NC(=N)N)cc4C(F)(F)F)CC3)cn2)cc1 at or over 7 in terms of pIC50? 1

Please tell me: is the compound CC1(C(=O)N2CCC(c3ccc(C(=O)NC(=N)N)cc3C(F)(F)F)CC2)CCCN1 (stereo not drawn) at or over 7 in terms of pIC50? 1

Please tell me: is the compound CN(C)CCC(=O)N1CCC(c2ccc(C(=O)NC(=N)N)cc2C(F)(F)F)CC1 at or over 7 in terms of pIC50? 1

Please tell me: is the compound COc1cc(C2CCN(C(=O)c3cccc(C#N)c3)CC2)c(C(F)(F)F)cc1C(=O)NC(=N)N at or over 7 in terms of pIC50? 1

Please tell me: is the compound N=C(N)NC(=O)c1ccc([C@@H]2CCN(C(=O)c3ccc(F)cc3)C2)c(C(F)(F)F)c1 at or over 7 in terms of pIC50? 1

Please tell me: is the compound N=C(N)NC(=O)c1ccc(C2CCN(C(=O)C3CCCN3)CC2)c(C(F)(F)F)c1 (stereo not drawn) at or over 7 in terms of pIC50? 1

Please tell me: is the compound Cc1cc(C2CCN(C(=O)c3ccc(F)cc3)CC2)c(S(C)(=O)=O)cc1C(=O)NC(=N)N at or over 7 in terms of pIC50? 1

Please tell me: is the compound CCC(=O)N1CCC(c2cc(C)c(C(=O)NC(=N)N)cc2S(C)(=O)=O)CC1 at or over 7 in terms of pIC50? 1

Please tell me: is the compound N=C(N)NC(=O)c1ccc(C2CCN(C(=O)C(N)Cc3ccncc3)CC2)c(C(F)(F)F)c1 (stereo not drawn) at or over 7 in terms of pIC50? 1

Please tell me: is the compound CN(C)C(=O)c1ccc(C(=O)N2CCC(c3ccc(C(=O)NC(=N)N)cc3C(F)(F)F)CC2)cc1 at or over 7 in terms of pIC50? 1

Please tell me: is the compound N=C(N)NC(=O)c1ccc(C2CCN(C(=O)c3ccc(F)cc3)C2)c(C(F)(F)F)c1 (stereo not drawn) at or over 7 in terms of pIC50? 1

Please tell me: is the compound N=C(N)NC(=O)c1ccc(C2CCN(C(=O)c3ccc4cccnc4n3)CC2)c(C(F)(F)F)c1 at or over 7 in terms of pIC50? 1

Please tell me: is the compound N=C(N)NC(=O)c1ccc(C2CCN(C(=O)c3ccc(S(=O)(=O)C(F)(F)F)cc3)CC2)c(C(F)(F)F)c1 at or over 7 in terms of pIC50? -1

Please tell me: is the compound CC(C)CC(N)C(=O)N1CCC(c2ccc(C(=O)NC(=N)N)cc2C(F)(F)F)CC1 (stereo not drawn) at or over 7 in terms of pIC50? 1

Please tell me: is the compound N=C(N)NC(=O)c1ccc(C2CCN(C(=O)c3cccc4ccccc34)CC2)c(C(F)(F)F)c1 at or over 7 in terms of pIC50? -1

Please tell me: is the compound C[C@@](N)(Cc1ccccc1)C(=O)N1CCC(c2ccc(C(=O)NC(=N)N)cc2C(F)(F)F)CC1 at or over 7 in terms of pIC50? 1

Please tell me: is the compound CC(=O)N1CCC(c2ccc(C(=O)NC(=N)N)cc2S(C)(=O)=O)CC1 at or over 7 in terms of pIC50? 1

Please tell me: is the compound N=C(N)NC(=O)c1ccc(C2CCN(C(=O)c3ccccc3)CC2)c(C(F)(F)F)c1 at or over 7 in terms of pIC50? 1

Please tell me: is the compound Cc1cc(C2CCN(C(=O)c3cccnc3)CC2)c(C(F)(F)F)cc1C(=O)NC(=N)N at or over 7 in terms of pIC50? 1

Please tell me: is the compound N=C(N)NC(=O)c1ccc(C2CCN(C(=O)c3ccc(C(N)=O)cc3)CC2)c(C(F)(F)F)c1 at or over 7 in terms of pIC50? 1

====

- tgt: NHE-1 (Homo sapiens, UniProt P19634)
- Construct: endogenous in cells; host or cells: HT-29
- experiment_notes: Evaluation of NHE-1 Inhibition (pHi) in HT-29 cells
- Type: cell-based
- run_conditions: BCECF dye, 50% inhibition of the intracellular pH recovery, read-out: NHE1 HT29 pHi IC50
readout: pIC50
Quick note: pIC50 means taking -log10 of the concentration in moles per liter.

Please indicate recorded pIC50 of N=C(N)NC(=O)c1ccc(C2=CCN(C(=O)c3cnc[nH]3)CC2)c(C(F)(F)F)c1 measured with NHE-1 (Homo sapiens, UniProt P19634). 7.59

Please indicate recorded pIC50 of CSCCC(N)C(=O)N1CCC(c2ccc(C(=O)NC(=N)N)cc2C(F)(F)F)CC1 (stereo not drawn) measured with NHE-1 (Homo sapiens, UniProt P19634). 7.89

Please indicate recorded pIC50 of CS(=O)(=O)c1ccc(C(=O)N2CC=C(c3ccc(C(=O)NC(=N)N)cc3C(F)(F)F)CC2)cc1 measured with NHE-1 (Homo sapiens, UniProt P19634). 7.31

Please indicate recorded pIC50 of N=C(N)NC(=O)c1ccc(C2CCN(C(=O)[C@@H](N)c3ccccc3)CC2)c(C(F)(F)F)c1 measured with NHE-1 (Homo sapiens, UniProt P19634). 7.68

Please indicate recorded pIC50 of N=C(N)NC(=O)c1ccc(C2CCN(C(=O)c3cccc(-n4cccn4)c3)CC2)c(C(F)(F)F)c1 measured with NHE-1 (Homo sapiens, UniProt P19634). 6.82

Please indicate recorded pIC50 of N=C(N)NC(=O)c1ccc(C2CCN(C(=O)c3cccc(Br)c3)CC2)c(C(F)(F)F)c1 measured with NHE-1 (Homo sapiens, UniProt P19634). 6.74

Please indicate recorded pIC50 of N=C(N)NC(=O)c1ccc(C2CCN(C(=O)CCN)CC2)c(C(F)(F)F)c1 measured with NHE-1 (Homo sapiens, UniProt P19634). 8.10

Please indicate recorded pIC50 of Cc1cc(C2CCN(C(=O)c3ccc(C#N)cc3)CC2)c(S(C)(=O)=O)cc1C(=O)NC(=N)N measured with NHE-1 (Homo sapiens, UniProt P19634). 7.57

Please indicate recorded pIC50 of COc1cccc(-c2ccc(C(=O)N3CCC(c4ccc(C(=O)NC(=N)N)cc4C(F)(F)F)CC3)cn2)c1 measured with NHE-1 (Homo sapiens, UniProt P19634). 6.60

Please indicate recorded pIC50 of N=C(N)NC(=O)c1ccc(C2CCN(C(=O)c3ccc(N4CCCC4)nc3)CC2)c(C(F)(F)F)c1 measured with NHE-1 (Homo sapiens, UniProt P19634). 7.12

Please indicate recorded pIC50 of CS(=O)(=O)c1cccc(C(=O)N2CCC(c3ccc(C(=O)NC(=N)N)cc3C(F)(F)F)CC2)c1 measured with NHE-1 (Homo sapiens, UniProt P19634). 7.20

Please indicate recorded pIC50 of Cc1cc(C2CCN(C(=O)c3ccc(S(C)(=O)=O)cc3)CC2)c(C(F)(F)F)cc1C(=O)NC(=N)N measured with NHE-1 (Homo sapiens, UniProt P19634). 7.70

Please indicate recorded pIC50 of N=C(N)NC(=O)c1ccc(C2CCN(C(=O)c3ccc(C(F)(F)F)cc3F)CC2)c(C(F)(F)F)c1 measured with NHE-1 (Homo sapiens, UniProt P19634). 6.52

Please indicate recorded pIC50 of N=C(N)NC(=O)c1ccc(C2CCN(C(=O)c3ccc[nH]3)CC2)c(C(F)(F)F)c1 measured with NHE-1 (Homo sapiens, UniProt P19634). 7.34

Please indicate recorded pIC50 of N=C(N)NC(=O)c1ccc(C2CCN(C(=O)[C@H](N)c3ccccc3)CC2)c(C(F)(F)F)c1 measured with NHE-1 (Homo sapiens, UniProt P19634). 7.62

Please indicate recorded pIC50 of N=C(N)NC(=O)c1ccc(C2CCN(C(=O)C3CC3)CC2)c(C(F)(F)F)c1 measured with NHE-1 (Homo sapiens, UniProt P19634). 7.80

Please indicate recorded pIC50 of N=C(N)NC(=O)c1ccc(C2CCN(C(=O)c3ccc(-n4cccn4)nc3)CC2)c(C(F)(F)F)c1 measured with NHE-1 (Homo sapiens, UniProt P19634). 7.04

Please indicate recorded pIC50 of N=C(N)NC(=O)c1ccc(C2CCN(C(=O)c3cccc(C(F)(F)F)c3)CC2)c(C(F)(F)F)c1 measured with NHE-1 (Homo sapiens, UniProt P19634). 6.60
